Origin of measurements: ChEMBL document CHEMBL5030563

- assay: Initial plasma concentration in ICR mouse at 5 mg/kg, iv up to 24 hrs by LC-MS/MS analysis
- Assay type: ADME, organism-based
measure: C0 at 24 h

I have this molecule here, Nc1ccccc1NC(=O)c1ccc(CCn2ncc3c2nc(N)n2nc(-c4ccco4)nc32)cc1 , and I need its recorded C0 at 24 h.
4580 ng/mL

* * *

- assay: Bioavailability in ICR mouse at 20 mg/kg up to 24 hrs by LC-MS/MS analysis
- Assay type: ADME, organism-based
- conditionInfo: in vivo
measure: bioavailability (%)
Just the number in %, nothing appended.

Fill blank: measured bioavailability of the compound Nc1ccccc1NC(=O)c1ccc(CCn2ncc3c2nc(N)n2nc(-c4ccco4)nc32)cc1 is ____.
112

* * *

Each entry below carries its reported k el at 24 h.
- assay: Elimination rate constant in ICR mouse at 20 mg/kg, po up to 24 hrs by LC-MS/MS analysis
- Type: ADME, organism-based
- conditionInfo: in vivo
Report only the number, with the unit s⁻¹ understood.

Nc1ccccc1NC(=O)c1ccc(CCn2ncc3c2nc(N)n2nc(-c4ccco4)nc32)cc1    9.86e-05

Now look at this one.
For the compound N#Cc1cccc(-c2nc3c4cnn(CCc5ccc(C(=O)Nc6ccccc6N)cc5)c4nc(N)n3n2)c1 , what k el at 24 h is on record?
5.67e-05

* * *

- assay: Elimination rate constant in ICR mouse at 20 mg/kg, ip up to 24 hrs by LC-MS/MS analysis
- Type: ADME, organism-based
- conditionInfo: in vivo
measure: k el at 24 h (s⁻¹)
State the answer as a number, implicitly in s⁻¹.

Returns the measured k el at 24 h for the input compound. Input: Nc1ccccc1NC(=O)c1ccc(CCn2ncc3c2nc(N)n2nc(-c4ccco4)nc32)cc1
0.000138

* * *

- testedOn: UniProt P29274
- Sequence (P29274 whole entry): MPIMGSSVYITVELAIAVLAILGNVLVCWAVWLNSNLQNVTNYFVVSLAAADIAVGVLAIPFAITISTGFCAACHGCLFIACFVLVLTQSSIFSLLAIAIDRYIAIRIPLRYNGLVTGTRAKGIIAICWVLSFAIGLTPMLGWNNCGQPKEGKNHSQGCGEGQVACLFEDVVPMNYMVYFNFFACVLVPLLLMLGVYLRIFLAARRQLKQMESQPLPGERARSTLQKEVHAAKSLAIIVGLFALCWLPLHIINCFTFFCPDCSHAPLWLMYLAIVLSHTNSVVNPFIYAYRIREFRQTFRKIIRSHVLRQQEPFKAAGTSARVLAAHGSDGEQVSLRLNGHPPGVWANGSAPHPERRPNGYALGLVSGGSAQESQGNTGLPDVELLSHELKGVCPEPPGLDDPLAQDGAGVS
# if measured Ki < 10 nM: met  # else: not met

Nc1nc(NCc2ccc(OCCCCC(=O)NO)cc2)nc2nc(-c3ccco3)nn12    not met
Nc1nc2c(cnn2CCCCC(=O)NO)c2nc(-c3ccco3)nn12    not met
Nc1cc(F)ccc1NC(=O)c1ccc(CCn2ncc3c2nc(N)n2nc(-c4ccco4)nc32)cc1    met

Input Nc1ccccc1NC(=O)c1ccc(CCCNc2nc(N)n3nc(-c4ccco4)nc3n2)cc1 ; condition: Ki strictly below 10 nM. Does it hold?
met

Lab log: compare recorded Ki with 10 nM; is it strictly lower for Nc1nc(N2CCN(CCc3ccc(C(=O)NO)cc3)CC2)nc2nc(-c3ccco3)nn12 ?
met

* * *

- assay: Half life in ICR mouse at 5 mg/kg, iv up to 24 hrs by LC-MS/MS analysis
- Assay type: ADME, organism-based
- conditionInfo: in vivo
measure: half-life (min)
State just the number; it will be interpreted in min.

I have this molecule here, Nc1ccccc1NC(=O)c1ccc(CCn2ncc3c2nc(N)n2nc(-c4ccco4)nc32)cc1 , and I need its recorded half-life.
17.1

* * *

- assay: MRT in ICR mouse at 5 mg/kg, iv up to 24 hrs by LC-MS/MS analysis
- Format: ADME, organism-based
- conditionInfo: in vivo
measure: MRT (min)
The reply should contain only the number, in min.

Entry Nc1ccccc1NC(=O)c1ccc(CCn2ncc3c2nc(N)n2nc(-c4ccco4)nc32)cc1 has what MRT?
20
